Hello, the source for this data is PubChem BioAssay AID651581, in case you need it.

Target: Hypoxia-inducible factor 1-alpha (Homo sapiens) (UniProt Q16665)
Sequence (Q16665 whole entry, looked up): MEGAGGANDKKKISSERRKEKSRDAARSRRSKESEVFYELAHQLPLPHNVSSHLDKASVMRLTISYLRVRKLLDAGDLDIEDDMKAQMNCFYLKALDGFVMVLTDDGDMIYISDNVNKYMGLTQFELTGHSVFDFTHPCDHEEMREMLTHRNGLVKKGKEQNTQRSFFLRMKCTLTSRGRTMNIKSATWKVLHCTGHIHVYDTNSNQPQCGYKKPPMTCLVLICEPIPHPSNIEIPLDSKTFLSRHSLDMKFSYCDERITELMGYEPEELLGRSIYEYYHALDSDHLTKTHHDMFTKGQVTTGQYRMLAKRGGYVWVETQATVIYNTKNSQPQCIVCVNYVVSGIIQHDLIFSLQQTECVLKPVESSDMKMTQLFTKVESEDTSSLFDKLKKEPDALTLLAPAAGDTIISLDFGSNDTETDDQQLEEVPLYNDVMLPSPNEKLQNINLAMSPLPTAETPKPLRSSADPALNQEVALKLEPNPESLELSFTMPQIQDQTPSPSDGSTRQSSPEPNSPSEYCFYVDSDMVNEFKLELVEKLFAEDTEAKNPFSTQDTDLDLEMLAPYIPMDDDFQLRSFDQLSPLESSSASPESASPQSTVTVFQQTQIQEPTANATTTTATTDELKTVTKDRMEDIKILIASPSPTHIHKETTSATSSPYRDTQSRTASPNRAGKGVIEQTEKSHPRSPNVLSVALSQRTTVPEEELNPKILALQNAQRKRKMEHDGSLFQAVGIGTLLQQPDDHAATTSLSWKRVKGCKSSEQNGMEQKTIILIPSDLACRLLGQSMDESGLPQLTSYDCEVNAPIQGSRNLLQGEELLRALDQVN
Test: HIF-2a and HIF-1a reporter inhibition panel, dose response, selectivity assay for HIF-2a inhibitor project, cell-based, luminescence (AID 651581)
Details: HIF-1a, run 2
ASSAY_METRIC: log10(IC50) (log10 of the value in µM)
Please be aware that the numbers have been log10-transformed from IC50 in µM.

# CHEM_SMILES, ASSAY_SYSTEM, log10(IC50)
measured = [
    ("N#Cc1ccccc1COc1ccc(/C=C/C(=O)O)cc1", "Hypoxia-inducible factor 1-alpha (Homo sapiens) (UniProt Q16665)", 0.05),
    ("CCC(=O)Nc1cccc(C(=O)c2ccc(C)c(C)c2)c1", "Hypoxia-inducible factor 1-alpha (Homo sapiens) (UniProt Q16665)", 1.59),
]

For the compound shown here, Cc1cccc(NC(=S)NNc2ncc(C(F)(F)F)cc2Cl)c1 , give the reported log10(IC50).
1.43

# input compound: CC1(C)CC[C@]2(C(=O)O)CC[C@]3(C)C(=CC[C@@H]4[C@@]5(C)CC[C@H](O[C@@H]6O[C@H](C(=O)O)[C@@H](O)[C@H](O[C@@H]7OC[C@H](O)[C@H](O)[C@H]7O)[C@H]6O)C(C)(C)[C@@H]5CC[C@]43C)[C@@H]2C1 ; wanted: its log10(IC50)
1.20

Look at this compound and give its reported log10(IC50). O=C(O)COc1ccc(-c2nccc(-c3ccccn3)n2)cc1
-0.11

Given the entry NCCN1C(=O)S/C(=C\c2ccc3c(c2)OCO3)C1=O , report its measured log10(IC50).
0.75

Value lookup for log10(IC50); key = O=C1C=C(c2ccc(Cl)cc2)C(=O)N1Nc1ccccc1
1.46

Return reported log10(IC50); argument: CC(=O)Nc1ccc(OC(=O)N2CCCCC2)cc1
1.05
